Molecular target: T1, human hepcidin (mature, 25 amino acids) (human, mono-biotinylated in the ELISAs and on the KinExA beads (site not stated); unlabelled in solution and on the BIAcore chip)
T1 construct: the form is named in each assay field; also called rhuHepc; rhHepc
T1 peptide: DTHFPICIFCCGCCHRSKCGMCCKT
Test: ELISA, mono-biotinylated human hepcidin on Neutravidin plate, pH 7.4
Procedure: Differential pH binding of the antibodies listed above in Table 3 was then determined by ELISA. 50 μL of Neutravidin (Pierce) at 8 μg/mL in 1×PBS was coated upon a Nunc Maxisorp 384-well plate, and incubated at 37° C. for 1 hr. […] The absorption was measured at 450 nm on a plate reader. Binding data were analyzed by non-linear regression analysis (sigmoidal dose-response, variable slope) to generate EC₅₀ values using GraphPad Prism® software. […]
measured attribute: EC50 (ng/mL)
Respond with the bare value in ng/mL.

(Q) For 15E1 A107H L27H (antibody, V domains shown, Double histidine mutant of 15E1 (one change in each chain); constant regions as in wild-type 15E1; also called A107H (heavy chain)/L27H (light chain)) VH: QVQLVESGGGVVQPGRSLRLSCAASGFTFSSYGMHWVRQAPGKGLEWVAVIWYAESNKYYADSVKGRFTISRDNSKNTLYLQMNSLRAEDTAVYYCARAQEGIAPDHFDIWGQGTMVTVSS VL: SYELTQPPSVSVSPGQTATITCSGDKHGERYACWYQQRPGQSPVLVIYQDSKRPSGIPERFSGSNSGNTATLTISGTQAMDEADYFCQAWYSSTNVLFGGGTKLTVL , what is its reported EC50?
(A) 4.3

(Q) Fill blank: measured EC50 of the binder 15E1 A89H (antibody, V domains shown, Histidine mutant of 15E1, transiently expressed in 293-6E cells; constant regions as in wild-type 15E1; also called A89H (light chain)) VH: QVQLVESGGGVVQPGRSLRLSCAASGFTFSSYGMHWVRQAPGKGLEWVAVIWYAESNKYYADSVKGRFTISRDNSKNTLYLQMNSLRAEDTAVYYCARAQEGIAPDAFDIWGQGTMVTVSS VL: SYELTQPPSVSVSPGQTATITCSGDKLGERYACWYQQRPGQSPVLVIYQDSKRPSGIPERFSGSNSGNTATLTISGTQAMDEADYFCQHWYSSTNVLFGGGTKLTVL is ____.
(A) 5.4

(Q) What value of EC50 has been recorded for this entry: 15E1 N57H A107H (antibody, V domains shown, Double histidine mutant of 15E1; constant regions as in wild-type 15E1; also called A107H (heavy chain)/N57H (heavy chain)) VH: QVQLVESGGGVVQPGRSLRLSCAASGFTFSSYGMHWVRQAPGKGLEWVAVIWYAESHKYYADSVKGRFTISRDNSKNTLYLQMNSLRAEDTAVYYCARAQEGIAPDHFDIWGQGTMVTVSS VL: SYELTQPPSVSVSPGQTATITCSGDKLGERYACWYQQRPGQSPVLVIYQDSKRPSGIPERFSGSNSGNTATLTISGTQAMDEADYFCQAWYSSTNVLFGGGTKLTVL
(A) 7.3
